molecular target: human COX-2 (Homo sapiens); experiment: COX-2 purified enzyme assay (Cayman Chemical kit, PGH2 production detected as PGF2α by EIA); conditions: purified human COX-2; read-out: IC50 for inhibition of COX-2
Sequence (P35354 18-604): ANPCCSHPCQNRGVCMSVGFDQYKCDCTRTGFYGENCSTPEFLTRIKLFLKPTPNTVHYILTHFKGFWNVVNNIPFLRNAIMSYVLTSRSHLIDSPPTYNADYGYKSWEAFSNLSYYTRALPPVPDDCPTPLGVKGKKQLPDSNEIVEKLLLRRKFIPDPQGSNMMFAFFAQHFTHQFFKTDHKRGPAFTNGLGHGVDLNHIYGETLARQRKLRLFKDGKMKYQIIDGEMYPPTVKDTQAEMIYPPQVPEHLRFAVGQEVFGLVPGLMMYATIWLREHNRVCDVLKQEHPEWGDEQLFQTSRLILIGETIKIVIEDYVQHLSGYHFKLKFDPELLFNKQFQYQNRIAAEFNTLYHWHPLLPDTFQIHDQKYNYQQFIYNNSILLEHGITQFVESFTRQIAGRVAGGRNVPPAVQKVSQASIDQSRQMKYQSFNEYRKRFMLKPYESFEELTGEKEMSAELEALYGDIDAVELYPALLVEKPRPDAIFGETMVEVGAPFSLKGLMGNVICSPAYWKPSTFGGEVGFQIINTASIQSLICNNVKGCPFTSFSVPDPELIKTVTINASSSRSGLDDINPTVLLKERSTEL
property-name: IC50 (µM)
Your answer should be a plain number; it is taken to be in µM.

Ask | Consider the molecule shown here: COc1ccc2[nH]c(C)c(CC(=O)O)c2c1 [desbenzoylindomethacin] What is its recorded IC50?
Reply | 12

###

molecular target: ovine COX-1 (Ovis aries, UniProt P05979); assay: COX-1 purified enzyme assay (Cayman Chemical kit, PGH2 production detected as PGF2α by EIA); conditions: purified ovine COX-1; read-out: IC50 for inhibition of COX-1
Sequence (P05979 25-600): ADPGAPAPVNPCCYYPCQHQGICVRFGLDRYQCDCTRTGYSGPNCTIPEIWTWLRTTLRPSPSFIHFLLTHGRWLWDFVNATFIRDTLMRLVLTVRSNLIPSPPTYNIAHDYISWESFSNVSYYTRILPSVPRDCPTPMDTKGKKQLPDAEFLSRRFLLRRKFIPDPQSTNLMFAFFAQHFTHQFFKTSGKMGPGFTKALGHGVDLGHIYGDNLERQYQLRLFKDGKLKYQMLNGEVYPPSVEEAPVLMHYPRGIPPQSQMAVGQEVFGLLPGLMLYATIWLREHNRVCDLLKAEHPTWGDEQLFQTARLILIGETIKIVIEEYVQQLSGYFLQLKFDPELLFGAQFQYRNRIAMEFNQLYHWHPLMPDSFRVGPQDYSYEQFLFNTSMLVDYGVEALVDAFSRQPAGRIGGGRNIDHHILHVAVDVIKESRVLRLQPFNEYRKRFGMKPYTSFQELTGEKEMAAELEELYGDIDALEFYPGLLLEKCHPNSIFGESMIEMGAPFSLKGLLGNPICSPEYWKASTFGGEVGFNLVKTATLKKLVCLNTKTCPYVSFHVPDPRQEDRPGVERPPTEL
property-name: IC50

Cc1c(CC(=O)O)c2cc(O)ccc2n1C(=O)c1ccc(Cl)cc1 | 15 µM

Note: attention shifts to another entry.
Ask | Consider the molecule shown here: `COc1ccc2[nH]c(C)c(CC(=O)O)c2c1` What is its recorded IC50?
Reply | 20 µM

Hey, just so you know, these numbers are from patent US20070293542A1.
